biological target: Beta-1 adrenergic receptor (Homo sapiens, UniProt P08588); test: Displacement of [125I]-pindolol from human recombinant adrenergic Beta1 receptor expressed in Flp-In CHO cells after 90 mins by microbeta scintillation counting method
Sequence (P08588 whole entry): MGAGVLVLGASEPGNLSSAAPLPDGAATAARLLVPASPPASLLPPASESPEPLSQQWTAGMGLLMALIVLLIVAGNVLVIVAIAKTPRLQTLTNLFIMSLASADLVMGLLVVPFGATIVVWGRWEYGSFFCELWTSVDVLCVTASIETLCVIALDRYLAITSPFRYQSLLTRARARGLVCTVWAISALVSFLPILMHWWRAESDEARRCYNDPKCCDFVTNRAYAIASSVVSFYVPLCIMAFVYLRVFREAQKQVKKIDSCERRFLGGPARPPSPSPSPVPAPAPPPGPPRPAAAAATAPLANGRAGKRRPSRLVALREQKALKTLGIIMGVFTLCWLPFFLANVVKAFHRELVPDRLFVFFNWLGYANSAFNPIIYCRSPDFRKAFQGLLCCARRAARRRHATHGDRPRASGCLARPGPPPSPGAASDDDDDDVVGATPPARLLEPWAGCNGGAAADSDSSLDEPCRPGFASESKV
Recorded Ki by entry
measured.quantity: Ki (µM)

- compound: "CC[C@H]1c2ccccc2N(c2ccccc2)C[C@@]1(C)N (racemic)"
  test.system: "Beta-1 adrenergic receptor (Homo sapiens, UniProt P08588)"
  qualifier.operator: ">"
  observed.value: 10
- compound: "COc1cc(OC)c2c(c1)OC[C@@]1(C)NCC[C@@H]21 (racemic)"
  test.system: "Beta-1 adrenergic receptor (Homo sapiens, UniProt P08588)"
  qualifier.operator: "="
  observed.value: 1
- compound: "CC[C@H]1c2cc(OC)ccc2CC[C@@]1(C)N (racemic)"
  test.system: "Beta-1 adrenergic receptor (Homo sapiens, UniProt P08588)"
  qualifier.operator: ">"
  observed.value: 10
- compound: "CC[C@H]1c2cc(C)ccc2OC[C@@]1(C)N (racemic)"
  test.system: "Beta-1 adrenergic receptor (Homo sapiens, UniProt P08588)"
  qualifier.operator: ">"
  observed.value: 10
- compound: "C[C@@]12CN(c3ccccc3)c3ccccc3[C@@H]1CCN2 (racemic)"
  test.system: "Beta-1 adrenergic receptor (Homo sapiens, UniProt P08588)"
  qualifier.operator: "="
  observed.value: 3.16
